- ASSAY TARGET: T1, PUF4 RNA-binding domain (Saccharomyces cerevisiae, UniProt P25339 537-888)
- T1 sequence: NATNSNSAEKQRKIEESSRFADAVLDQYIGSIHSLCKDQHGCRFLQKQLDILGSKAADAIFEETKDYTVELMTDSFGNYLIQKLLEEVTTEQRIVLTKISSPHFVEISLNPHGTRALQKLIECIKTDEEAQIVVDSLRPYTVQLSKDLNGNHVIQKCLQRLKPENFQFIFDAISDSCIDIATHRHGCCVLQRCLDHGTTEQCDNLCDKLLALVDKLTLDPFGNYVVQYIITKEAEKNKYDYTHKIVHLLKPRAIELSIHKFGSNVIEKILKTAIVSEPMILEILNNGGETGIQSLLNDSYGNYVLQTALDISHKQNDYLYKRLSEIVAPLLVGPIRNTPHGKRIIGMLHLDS
- ASSAY PROCEDURE: Mg; RNA-MaP; 20 mM Na-HEPES pH 7.4, 30 mM KOAc, 0.75 mM MgCl2, 0.1% Tween-20, 5% glycerol, 0.1 mg/mL BSA, 2 mM DTT; 25 C; 0.0125-409.6 nM protein
- TEST SETTINGS: tags: N-His6-TEV cleaved; C-SNAP kept, Cy3B-labelled; label: tethered on chip by stalled RNA polymerase
Item-by-item account of log10 of Kd
EXPERIMENTAL READOUT: log10 of Kd (log10 of the value in nM)

ACAAACGUACACUAUUAUCACAAAC (ssRNA) [Id_ii_S3_P4E.4_K4.3_C4.2_[C-2G]_H4.3_A4.1_F4.1_T4.2_[G10T]_[T11C]]; 1.60
Ib_S2_P5E.1_K5.1_C5.1_H5.1_[G2A]_A5.1_F5.1_[T9C]_T5.1 (ssRNA) RNA: UUUGAUUAAUAUGAUAUCGUUCUUUCUUAUAUUAUCAUUCUUUCUCGAUAUCAUAUUAAUCUUU; 2.63
Ia_S2_P5E.1_K5.1_C5.1_H5.1_A5.1_[A7G]_F5.1_T5.1 (ssRNA) RNA: UUUGAUUAAUAUGAUAUCGUUCUUUCUUGUAUUGUUAUUCUUUCUCGAUAUCAUAUUAAUCUUU; 1.06
Ib_S2_P5E.1_K5.1_C5.1_H5.1_A5.1_[T6A]_F5.1_[A10T]_T5.1 (ssRNA) RNA: UUUGAUUAAUAUGAUAUCGUUCUUUCUUGUAUAAUUUUUCUUUCUCGAUAUCAUAUUAAUCUUU; 0.84
UCUCUUUAUUAUAUAUAUAUCUCUU (ssRNA) [Id_iii_S1_P3E.6_K3.2_C3.3_[C-2A]_H3.2_A3.1_F3.1_T3.2]; 2.57
Id_ii_S2_P3E.3_K3.2_C3.2_[T-1C]_H3.2_A3.1_F3.1_T3.2 (ssRNA) RNA: UUUGAUUAAUAUGAUAUCGUUCUUUCUCCUAUAUAUAUAUUCUUUCUCGAUAUCAUAUUAAUCUUU; 1.63
